Define the label as Criterion met when melting point is strictly less than 30 °C and as Criterion not met in all remaining cases.

*Q* melting point strictly < 30 °C for this molecule? CC1(C)CC(=O)C(=Cc2ccc(-c3ccc(Cl)cc3)o2)C(=O)C1
*A* Criterion not met

*Q* Same lookup for CCc1c(Br)c(Br)c(Br)c(Br)c1Br , please.
*A* Criterion not met

*Q* Thanks! And c1ccc(N=Nc2ccc(Nc3ccccc3)cc2)cc1 ?
*A* Criterion not met

*Q* Further, for CCCCCCC(CCCCCC)CCCCCC ?
*A* Criterion met

*Q* Next record, please: C1CCCNCCC1
*A* Criterion met

---

Assignment: determine reported melting point for the given molecules.

*Q* Find the recorded melting point belonging to Cn1nc2ccccc2c1C=O and report it.
*A* 75 to 77 °C

*Q* Please answer likewise for O=C(O)c1ccnc(C(=O)O)c1C(=O)O
*A* 250 °C

*Q* Also check Cc1ccc(S(=O)(=O)OCC2CO2)cc1 (stereo not drawn)
*A* 45 to 48 °C

*Q* Please answer likewise for Nc1ccc(CO)cc1
*A* 61 °C

*Q* Then this molecule: O=C(O)c1ccccc1-c1cccnc1
*A* 188 °C

*Q* Input O=C(O)c1csc(-c2cccnc2)n1
*A* 283 to 284 °C

*Q* Then Nc1ccc(C2=NN(c3ccccc3)C(=O)C2)cc1 ?
*A* 160 °C

*Q* And Cc1ccc(CS(=O)(=O)Cl)cc1 ?
*A* 80 to 85 °C

*Q* Further, for NNC(=O)c1csc(-c2ccccc2)n1 ?
*A* 137 to 138 °C

*Q* // query: O=C(Oc1c(-c2ccccc2)[nH]c2cc([N+](=O)[O-])ccc12)c1ccccc1
*A* 229 °C

*Q* Then what about the molecule O=c1[nH]nc2ccccn12 ?
*A* 234 °C

*Q* Same for CC1=C(C)C(=O)C(C)=C(C)C1=O
*A* 112 °C

*Q* Quick one: Cc1cc(C)c(CC(=O)c2cc3cc(Br)ccc3o2)c(C)c1
*A* 123 to 124 °C

*Q* Further, for Nc1cc(-c2ccc(F)cc2)nc(N)n1 ?
*A* 164 to 166 °C

*Q* Can you handle Fc1ccc(CBr)c(Cl)c1 next?
*A* 37 °C

*Q* Please do the same for CCOC(=O)c1sc(N)nc1C as well.
*A* 177 to 178 °C

*Q* Item: C#CC(O)CCCCC (stereo not drawn)
*A* -60 °C

*Q* Again, but for COC(=O)c1cccc(N)c1
*A* 52 to 55 °C

*Q* Query CC12CCC(C(=O)/C(=C\c3ccccc3[N+](=O)[O-])C1=O)C2(C)C (stereo not drawn) next
*A* 140 to 141 °C

*Q* Moving on to the next molecule: CCCC(=O)c1c(C)cc(C)c(C2CC(=O)C(C(CC)=NOCC)=C(O)C2)c1C (stereo not drawn)
*A* 80.8 °C

*Q* Check Oc1ccc2ncccc2c1 too.
*A* 190 to 195 °C

*Q* Please give the result for CC(=O)NNC(C)=O too.
*A* 140 °C

*Q* Do the same for O=C(O)c1cccc(-c2ccccc2)c1 please
*A* 167 °C

*Q* Then what about the molecule N#CC(C#N)=Nc1ccccc1 ?
*A* 86 to 87 °C

*Q* Moving on to COC(=O)c1cc(C)[nH]c1C
*A* 120 °C

*Q* Then this molecule: CCC/C=C/CCCCCC
*A* -63.7 °C

*Q* Can you handle CCCCCCCCCCCCC#N next?
*A* 9.7 °C

*Q* Another: CCOC(=O)c1csc(-c2ccc(F)cc2F)n1
*A* 50 to 52 °C
